Test system: Plasmodium falciparum
assayName: Antiplasmodial activity against chloroquine-sensitive asexual blood stages of Plasmodium falciparum 3D7 after 72 hrs by HRP2-based ELISA
Assay type: functional
studyConditions: 3D7, 72 h
What IC50 was measured for each of the following?
Supply the numeric figure in nM, leaving out any unit text.

Given CN1CCN(Cc2cc(/C=N/N=C(\N)CC(O)c3cc4ccccc4c4ccccc34)ccc2O)CC1 (stereo unspecified) , state its recorded IC50.
5.2

Please answer likewise for CCCCC(/C=N/N=C(\N)CC(O)c1cc2ccccc2c2ccccc12)CCCC (stereo unspecified)
60

Please answer likewise for N/C(CC(O)c1cc2ccccc2c2ccccc12)=N\N=C1CCCCCC1 (stereo unspecified)
180

Please answer likewise for N/C(CC(O)c1cc2ccccc2c2ccccc12)=N\N=C\c1ccc(O)c(CN2CCCCC2)c1 (stereo unspecified)
2.9

Please answer likewise for CCN(CC)Cc1cccc(/C=N/N=C(\N)CC(O)c2cc3ccccc3c3ccccc23)c1 (stereo unspecified)
25

Please answer likewise for N/C(CC(O)c1cc2c(Cl)cc(Cl)cc2c2cc(C(F)(F)F)ccc12)=N\N=C\c1ccc(F)cc1 (stereo unspecified)
1.8

====

System: Plasmodium berghei
assayName: Antiplasmodial activity against Plasmodium berghei infected in NMRI mouse assessed as mean survival time at 30 mg/kg, po administered at 4, 24, 48, 72 hrs post infection by Peter's test (reference value: 6 to 7 day)
Type: functional
What MST was measured for each of the following?
Supply the numeric figure in days, leaving out any unit text.

Given O[C@@H](c1cc(C(F)(F)F)nc2c(C(F)(F)F)cccc12)[C@H]1CCCCN1 [(S,R)-MEFLOQUINE] , state its recorded MST.
29

Please answer likewise for CCN(CC)Cc1cc(/C=N/N=C(\N)CC(O)c2cc3c(F)cc(F)cc3c3cc(C(F)(F)F)ccc23)ccc1O (stereo not given)
28.3

Please answer likewise for C[C@H]1[C@H](OC(=O)CCC(=O)O)O[C@@H]2O[C@@]3(C)CC[C@H]4[C@H](C)CC[C@@H]1[C@@]24OO3 [ARTESUNATE]
10

Please answer likewise for N/C(CC(O)c1cc2c(F)cc(F)cc2c2cc(C(F)(F)F)ccc12)=N\N=C\c1ccc(F)cc1 (stereo not given)
25.7

Please answer likewise for N/C(CC(O)c1cc2c(Cl)cc(Cl)cc2c2cc(C(F)(F)F)ccc12)=N\N=C\c1ccc(F)cc1 (stereo not given)
13.7

====

System: Plasmodium berghei
assayName: Antiplasmodial activity against Plasmodium berghei infected in NMRI mouse assessed as reduction in parasitemia at 50 mg/kg, ip administered at 4, 24, 48, 72 hrs post infection measured on day 4 post infection by Peter's test relative to control
Format: functional
Parameters: scale not given: the % may be the effect or the level left
measuredAttribute: Activity (%)
Supply the numeric figure in %, leaving out any unit text.

Given CN(C)Cc1cc(/C=N/N=C(\N)CC(O)c2cc3ccccc3c3ccccc23)ccc1O (centres undefined) , state its recorded Activity.
99.8

Please answer likewise for N/C(CC(O)c1cc2c(Cl)cc(Cl)cc2c2cc(C(F)(F)F)ccc12)=N\N=C\c1ccc(F)cc1 (centres undefined)
99.9

Please answer likewise for CCCCC(CCCC)=N/N=C(\N)CC(O)c1cc2ccccc2c2ccccc12 (centres undefined)
64.8

Please answer likewise for CCN(CC)Cc1cc(/C=N/N=C(\N)CC(O)c2cc3ccccc3c3ccccc23)cc(CN(CC)CC)c1O (centres undefined)
99.8

Please answer likewise for CCN(CC)Cc1cc(/C=N/N=C(\N)CC(O)c2cc3ccccc3c3ccccc23)ccc1O (centres undefined)
99.7

Please answer likewise for CCN(CC)Cc1cc(/C=N/N=C(\N)CC(O)c2cc3c(F)cc(F)cc3c3cc(C(F)(F)F)ccc23)ccc1O (centres undefined)
99.8

Please answer likewise for CN1CCN(Cc2cc(/C=N/N=C(\N)CC(O)c3cc4ccccc4c4ccccc34)ccc2O)CC1 (centres undefined)
97.6

Please answer likewise for N/C(CC(O)c1cc2ccccc2c2ccccc12)=N\N=C\c1ccc(O)c(CN2CCCCC2)c1 (centres undefined)
98.7

Please answer likewise for N/C(CC(O)c1cc2ccccc2c2ccccc12)=N\N=C\c1ccc(O)c(CN2CCOCC2)c1 (centres undefined)
91.3

====

assayName: Selectivity index, ratio of IC50 for human HepG2 cells to IC50 for chloroquine-sensitive asexual blood stages of Plasmodium falciparum 3D7
Format: toxicity
studyConditions: read-out: Ratio IC50
What selectivity ratio was measured for each of the following?
Please reply with the number alone, leaving off any unit.

Given CCN(CC)Cc1cc(/C=N/N=C(\N)CC(O)c2cc3ccccc3c3ccccc23)cc(CN(CC)CC)c1O (stereo not given) , state its recorded selectivity ratio.
9530

Please answer likewise for CN(C)Cc1cc(/C=N/N=C(\N)CC(O)c2cc3ccccc3c3ccccc23)ccc1O (stereo not given)
6680

Please answer likewise for N/C(CC(O)c1cc2ccccc2c2ccccc12)=N\N=C1CCCCCC1 (stereo not given)
139

Please answer likewise for CCCCC(/C=N/N=C(\N)CC(O)c1cc2ccccc2c2ccccc12)CCCC (stereo not given)
127

Please answer likewise for N/C(CC(O)c1cc2ccccc2c2ccccc12)=N\N=C\c1ccc(O)c(CN2CCCCC2)c1 (stereo not given)
2900

Please answer likewise for CCN(CC)Cc1cccc(/C=N/N=C(\N)CC(O)c2cc3ccccc3c3ccccc23)c1 (stereo not given)
664

Please answer likewise for CCN(CC)Cc1cc(/C=N/N=C(\N)CC(O)c2cc3c(Cl)cc(Cl)cc3c3cc(C(F)(F)F)ccc23)ccc1O (stereo not given)
6200

Please answer likewise for CCCCC(CCCC)=N/N=C(\N)CC(O)c1cc2ccccc2c2ccccc12 (stereo not given)
1040

Please answer likewise for CCN(CC)Cc1cc(/C=N/N=C(\N)CC(O)c2cc3ccccc3c3ccccc23)ccc1O (stereo not given)
14700

Please answer likewise for CN1CCN(Cc2cc(/C=N/N=C(\N)CC(O)c3cc4ccccc4c4ccccc34)ccc2O)CC1 (stereo not given)
1620

Please answer likewise for N/C(CC(O)c1cc2c(Cl)cc(Cl)cc2c2cc(C(F)(F)F)ccc12)=N\N=C\c1ccc(F)cc1 (stereo not given)
24300

Please answer likewise for N/C(CC(O)c1cc2ccccc2c2ccccc12)=N\N=C\C1CCCCC1 (stereo not given)
83

Please answer likewise for N/C(CC(O)c1cc2ccccc2c2ccccc12)=N\N=C\c1ccc(O)c(CN2CCOCC2)c1 (stereo not given)
128

Please answer likewise for CCN(CC)Cc1cc(/C=N/N=C(\N)CC(O)c2cc3c(F)cc(F)cc3c3cc(C(F)(F)F)ccc23)ccc1O (stereo not given)
3440

====

Test system: Plasmodium falciparum
assayName: Antiplasmodial activity against chloroquine-sensitive asexual blood stages of Plasmodium falciparum 3D7 after 72 hrs by HRP2-based ELISA
Format: functional
studyConditions: 3D7, 72 h
What IC50 was measured for each of the following?

Given CCN(CC)Cc1cc(/C=N/N=C(\N)CC(O)c2cc3c(Cl)cc(Cl)cc3c3cc(C(F)(F)F)ccc23)ccc1O (centres undefined) , state its recorded IC50.
6.9 nM

Please answer likewise for CCN(CC)Cc1cc(/C=N/N=C(\N)CC(O)c2cc3ccccc3c3ccccc23)cc(CN(CC)CC)c1O (centres undefined)
1.5 nM

Please answer likewise for N/C(CC(O)c1cc2c(F)cc(F)cc2c2cc(C(F)(F)F)ccc12)=N\N=C\c1ccc(F)cc1 (centres undefined)
2.3 nM

Please answer likewise for CCCCC(CCCC)=N/N=C(\N)CC(O)c1cc2ccccc2c2ccccc12 (centres undefined)
8.3 nM

Please answer likewise for CCN(CC)Cc1cc(/C=N/N=C(\N)CC(O)c2cc3c(F)cc(F)cc3c3cc(C(F)(F)F)ccc23)ccc1O (centres undefined)
3.9 nM

Please answer likewise for N/C(CC(O)c1cc2ccccc2c2ccccc12)=N\N=C\c1ccc(O)c(CN2CCOCC2)c1 (centres undefined)
29 nM

Please answer likewise for CN(C)Cc1cc(/C=N/N=C(\N)CC(O)c2cc3ccccc3c3ccccc23)ccc1O (centres undefined)
2.5 nM

Please answer likewise for CCN(CC)Cc1cc(/C=N/N=C(\N)CC(O)c2cc3ccccc3c3ccccc23)ccc1O (centres undefined)
0.97 nM

Please answer likewise for N/C(CC(O)c1cc2ccccc2c2ccccc12)=N\N=C\C1CCCCC1 (centres undefined)
330 nM

====

What pIC50 was measured for each of the following?
System: Plasmodium falciparum
assayName: Gametocytocidal activity against transgenic GFP-fused Plasmodium falciparum NF54 early stage gametocytes after 72 hrs by Mitotracker Red CMH2XRos staining based confocal microscopic method
Assay type: functional
studyConditions: NF54, 72 h
pIC50 is defined as minus the log10 of a concentration measured in mol/L.

Given CCN(CC)Cc1cc(/C=N/N=C(\N)CC(O)c2cc3c(Cl)cc(Cl)cc3c3cc(C(F)(F)F)ccc23)ccc1O (centres undefined) , state its recorded pIC50.
6.34

Please answer likewise for N/C(CC(O)c1cc2c(F)cc(F)cc2c2cc(C(F)(F)F)ccc12)=N\N=C\c1ccc(F)cc1 (centres undefined)
6.70

Please answer likewise for CCN(CC)Cc1cc(/C=N/N=C(\N)CC(O)c2cc3c(F)cc(F)cc3c3cc(C(F)(F)F)ccc23)ccc1O (centres undefined)
6.66

Please answer likewise for N/C(CC(O)c1cc2c(Cl)cc(Cl)cc2c2cc(C(F)(F)F)ccc12)=N\N=C\c1ccc(F)cc1 (centres undefined)
7.51
